These entries and their values trace back to ChEMBL document CHEMBL2163211.

# protocol description: Cytotoxicity against human C8166 cells by MTT assay
# Format: cell-based
# note: exactly 90 µg/mL is not below, so it is condition not met; use condition met for CC50 strictly under it

Confirm or reject: CC50 of Cc1cc(=O)c2c(CC(C)O[C@@H]3O[C@H](CO)[C@@H](O)[C@H](O)[C@H]3O)cc(O)cc2o1 (some centres undefined) lies strictly below 90 µg/mL
condition not met

Confirm or reject: CC50 of COc1cc2c(c3oc(CCCO)cc(=O)c13)C=CC(C)(C)O2 lies strictly below 90 µg/mL
condition not met

Confirm or reject: CC50 of Cc1cc(=O)c2c(O)c(C)c(O)c(C)c2o1 lies strictly below 90 µg/mL
condition met

Confirm or reject: CC50 of CC1(C)C=Cc2c(cc(O)c3c(=O)cc(CCCO)oc23)O1 lies strictly below 90 µg/mL
condition not met

Confirm or reject: CC50 of COc1cc2oc(C)cc(=O)c2c(O)c1CC=C(C)C lies strictly below 90 µg/mL
condition met

Confirm or reject: CC50 of CC(=O)Cc1cc(O)cc2oc(C(=O)CCO)cc(=O)c12 lies strictly below 90 µg/mL
condition not met

Confirm or reject: CC50 of Cc1cn([C@H]2C[C@H](N=[N+]=[N-])[C@@H](CO)O2)c(=O)[nH]c1=O lies strictly below 90 µg/mL
condition not met

Confirm or reject: CC50 of C/C=C/c1cc(=O)c2c(CC(C)=O)cc(O)cc2o1 lies strictly below 90 µg/mL
condition met

Confirm or reject: CC50 of COc1cc(CC(C)=O)c2c(=O)cc(C(=O)CCO)oc2c1 lies strictly below 90 µg/mL
condition met

---

# Test system: Tobacco mosaic virus
# protocol description: Antiviral activity against Tobacco mosaic virus infected in right side leaf of Nicotiana glutinosa at 160 uM after 3 to 4 days by half-leaf method
# Format: functional
# inhibition at 160 µM >= 60% gives Yes, anything below gives No

Record COc1cc2c(c3oc(C(=O)O)cc(=O)c13)C=CC(C)(C)O2 ; criterion: inhibition at 160 µM no lower than 60%. Met?
No

Record CC1(C)C=Cc2c(cc(O)c3c(=O)cc(CCCO)oc23)O1 ; criterion: inhibition at 160 µM no lower than 60%. Met?
Yes

Record CC(C)c1cc(=O)c2c(O)cc(O[C@@H]3O[C@H](CO)[C@@H](O)[C@H](O)[C@H]3O)cc2o1 ; criterion: inhibition at 160 µM no lower than 60%. Met?
No

Record CC(=O)Cc1cc(O)cc2oc(C(=O)CCO)cc(=O)c12 ; criterion: inhibition at 160 µM no lower than 60%. Met?
Yes

Record CNCC(=O)N[C@@H](CO)C(=O)N[C@H]1[C@H](O)[C@@H](O)[C@H](n2ccc(N)nc2=O)O[C@@H]1C(N)=O ; criterion: inhibition at 160 µM no lower than 60%. Met?
Yes

---

# protocol description: Therapeutic index, ratio of CC50 for human C8166 cells to EC50 for HIV1
# Format: cell-based
# applied conditions: read-out: Ratio CC50/EC50
# note: exactly 30 is not below, so it is false (0); use true (1) for selectivity ratio strictly under it

Confirm or reject: selectivity ratio of COc1cc2oc(C)cc(=O)c2c(O)c1CC=C(C)C lies strictly below 30
true (1)

Confirm or reject: selectivity ratio of CC(=O)Cc1cc(O)cc2oc(C(=O)CCO)cc(=O)c12 lies strictly below 30
true (1)

Confirm or reject: selectivity ratio of Cc1cc(=O)c2c(O)c(C)c(O)c(C)c2o1 lies strictly below 30
true (1)

Confirm or reject: selectivity ratio of CC(C)c1cc(=O)c2c(O)cc(O[C@@H]3O[C@H](CO)[C@@H](O)[C@H](O)[C@H]3O)cc2o1 lies strictly below 30
false (0)

Confirm or reject: selectivity ratio of COc1cc(CC(C)=O)c2c(=O)cc(CCCO)oc2c1 lies strictly below 30
true (1)

---

# Test system: Tobacco mosaic virus
# protocol description: Antiviral activity against Tobacco mosaic virus infected in right side leaf of Nicotiana glutinosa at 80 uM after 3 to 4 days by half-leaf method
# Format: functional
# inhibition at 80 µM >= 40% gives T, anything below gives F

Record CC(=O)Cc1cc(O)cc2oc(C(=O)CCO)cc(=O)c12 ; criterion: inhibition at 80 µM no lower than 40%. Met?
T

Record CNCC(=O)N[C@@H](CO)C(=O)N[C@H]1[C@H](O)[C@@H](O)[C@H](n2ccc(N)nc2=O)O[C@@H]1C(N)=O ; criterion: inhibition at 80 µM no lower than 40%. Met?
T

Record COc1cc2c(c3oc(C(=O)O)cc(=O)c13)C=CC(C)(C)O2 ; criterion: inhibition at 80 µM no lower than 40%. Met?
F

Record CC1(C)C=Cc2c(cc(O)c3c(=O)cc(CCCO)oc23)O1 ; criterion: inhibition at 80 µM no lower than 40%. Met?
T

Record CC(C)c1cc(=O)c2c(O)cc(O[C@@H]3O[C@H](CO)[C@@H](O)[C@H](O)[C@H]3O)cc2o1 ; criterion: inhibition at 80 µM no lower than 40%. Met?
F

---

# System: Tobacco mosaic virus
# protocol description: Antiviral activity against Tobacco mosaic virus infected in right side leaf of Nicotiana glutinosa at 5 uM after 3 to 4 days by half-leaf method
# Type: functional
# inhibition at 5 µM >= 6% gives YES, anything below gives NO

Record CC1(C)C=Cc2c(cc(O)c3c(=O)cc(CCCO)oc23)O1 [SIAMCHROMONES F] ; criterion: inhibition at 5 µM no lower than 6%. Met?
YES

Record COc1cc2c(c3oc(C(=O)O)cc(=O)c13)C=CC(C)(C)O2 [PERFORATIC ACID] ; criterion: inhibition at 5 µM no lower than 6%. Met?
NO

Record CC(C)c1cc(=O)c2c(O)cc(O[C@@H]3O[C@H](CO)[C@@H](O)[C@H](O)[C@H]3O)cc2o1 [URACHROMONE A] ; criterion: inhibition at 5 µM no lower than 6%. Met?
NO

Record CC(=O)Cc1cc(O)cc2oc(C(=O)CCO)cc(=O)c12 [SIAMCHROMONES A] ; criterion: inhibition at 5 µM no lower than 6%. Met?
YES

Record CNCC(=O)N[C@@H](CO)C(=O)N[C@H]1[C@H](O)[C@@H](O)[C@H](n2ccc(N)nc2=O)O[C@@H]1C(N)=O [NINGNANMYCIN] ; criterion: inhibition at 5 µM no lower than 6%. Met?
YES

---

# protocol description: Therapeutic index, ratio of CC50 for human C8166 cells to EC50 for HIV1
# Type: cell-based
# applied conditions: read-out: Ratio CC50/EC50
parameter: selectivity ratio
// response body must contain only the number

Note selectivity ratio for the compound shown: COc1cc2c(c3oc(C)cc(=O)c13)C=CC(C)(C)O2
8.3

Note selectivity ratio for the compound shown: COc1cc2c(c3oc(C(=O)O)cc(=O)c13)C=CC(C)(C)O2
2.3

Note selectivity ratio for the compound shown: Cc1cc(=O)c2c(CC(C)O[C@@H]3O[C@H](CO)[C@@H](O)[C@H](O)[C@H]3O)cc(O)cc2o1 (some centres undefined)
63.3

Note selectivity ratio for the compound shown: CC(=O)[C@@H]1c2cc(O)cc(O)c2C(=O)C[C@]1(C)O
28

Note selectivity ratio for the compound shown: C/C=C/c1cc(=O)c2c(CC(C)=O)cc(O)cc2o1
9.37

Note selectivity ratio for the compound shown: CC1(C)C=Cc2c(cc(O)c3c(=O)cc(CCCO)oc23)O1
68

Note selectivity ratio for the compound shown: Cc1cc(=O)c2c(O)c(C)c(O[C@@H]3O[C@H](CO)[C@@H](O)[C@H](O)[C@H]3O)c(C)c2o1 [UNCINOSIDE A]
5.89

Note selectivity ratio for the compound shown: COc1cc(CC(C)=O)c2c(=O)cc(C(=O)CCO)oc2c1
16.3

Note selectivity ratio for the compound shown: CC(=O)Cc1cc(O)cc2oc(C)cc(=O)c12
13.5

Note selectivity ratio for the compound shown: CC1=CC2(O)OC(C)=Cc3cc(O)cc(c32)O1 (centres undefined)
17.1

---

Exercise: state measured CC50 for each of the molecules provided.
# protocol description: Cytotoxicity against human C8166 cells by MTT assay
# Assay type: cell-based

Note CC50 for the molecule shown: CC(C)c1cc(=O)c2c(O)cc(O[C@@H]3O[C@H](CO)[C@@H](O)[C@H](O)[C@H]3O)cc2o1
69.5 µg/mL

Note CC50 for the molecule shown: COc1cc2c(c3oc(C)cc(=O)c13)C=CC(C)(C)O2
37.3 µg/mL

Note CC50 for the molecule shown: COc1cc(CC(C)=O)c2c(=O)cc(CCCO)oc2c1
43.6 µg/mL

Note CC50 for the molecule shown: CC1=CC2(O)OC(C)=Cc3cc(O)cc(c32)O1 (stereo not given)
73.4 µg/mL

Note CC50 for the molecule shown: CC(=O)Cc1cc(O)cc2oc(C)cc(=O)c12
88.7 µg/mL

Note CC50 for the molecule shown: COc1cc2c(c3oc(C(=O)O)cc(=O)c13)C=CC(C)(C)O2
26.5 µg/mL

Note CC50 for the molecule shown: COc1cc(CC(C)=O)c2c(=O)cc(CCCOC(C)=O)oc2c1
> 200 µg/mL

Note CC50 for the molecule shown: CC(=O)[C@@H]1c2cc(O)cc(O)c2C(=O)C[C@]1(C)O
88.3 µg/mL

Note CC50 for the molecule shown: CC1(C)Oc2cc3oc(CO)cc(=O)c3c(O)c2C[C@@H]1O[C@@H]1O[C@H](CO)[C@@H](O)[C@H](O)[C@H]1O
> 200 µg/mL

Note CC50 for the molecule shown: Cc1cc(=O)c2c(O)c(C)c(O[C@@H]3O[C@H](CO)[C@@H](O)[C@H](O)[C@H]3O)c(C)c2o1 [UNCINOSIDE A]
22.8 µg/mL
